- test-summary: Primary qHTS for inhibitors of nuclear receptor binding SET domain protein 2 (NSD2) in an isogenic RCH-ACV NSD2 p.E1099K mutant (9B) (AID 1645876); further: nearly all actives have a fitted effect of over 70% in size
- assay-setup: RCH-ACV (leukaemia line) NSD2 E1099K (9B) viability, CellTiter-Glo, 72 h; series mostly up to 44.9 µM
Inconclusive results are not listed. Activity calls are given as the source filed them. The call rests on the fitted dose curve; in most records, active means well fitted inhibition curve with a large enough effect; inconclusive means small, poorly fitted or top-dose-only effect; inactive means flat fitted curve, though single readings scatter.
Choose one outcome from this list and give only that: active, inactive

QUERY: Dear all, I need the recorded test outcome for Cc1cccc(C)c1NC(=O)c1cc(S(N)(=O)=O)c(Cl)cc1O , thank you.
RESULT: inactive

QUERY: Record lookup: outcome of this test for C/C(=C1\CCOC(=O)S1)N(C=O)Cc1cnc(C)nc1N ?
RESULT: inactive

QUERY: Write down the call the test reported for this molecule. Item: CCCCOC(=O)CCCCCCCCC(=O)OCCCC
RESULT: inactive

QUERY: # fetch the recorded call for C[C@H]1NCc2cc(-c3ccc4c(=O)c(C(=O)O)cn(C5CC5)c4c3OC(F)F)ccc21 here
RESULT: inactive

QUERY: What is the recorded call for this molecule in the test? CN=C(N)NC(=O)Nc1c(C)cccc1C
RESULT: inactive

QUERY: Lab log entry: O=C(NO)c1ccccc1 — outcome as called in the assay?
RESULT: active

QUERY: Which outcome was entered for the molecule O=P(O)(O)OCC(O)CO (configuration not stated) in this test?
RESULT: inactive

* * *

- test-summary: qHTS of pediatric cancer cell lines to identify multiple opportunities for drug repurposing: Primary screen for SK-N-SH cells (AID 1347098); further: nearly all actives have a fitted effect of over 65% in size
- assay-setup: SK-N-SH viability, CellTiter-Glo luminescence, 48 h; series mostly up to 57 µM
Records with an inconclusive call do not appear. Active and inactive are the calls of the source. Calls follow the shape of the dose curve; as a rule, active = well fitted cell-killing curve with a large enough effect; inconclusive = small, poorly fitted or top-dose-only effect; inactive = no such curve, though single readings can be large or run the other way. Where a SMILES comes first, the peptide text is derived from it. [ ]: non-standard residue; d: D form. pGlu = O=C1CC[C@@H](C(=O)O)N1
Return exactly one item of active, inactive

QUERY: I'd appreciate the recorded outcome for CO[C@@]1(NC(=O)CSC[C@@H](N)C(=O)O)C(=O)N2C(C(=O)O)=C(CSc3nnnn3C)CS[C@@H]21 from this test.
RESULT: inactive

QUERY: For this compound, state the assay outcome: CC(C)C[C@H](NC(=O)CNC(=O)[C@H](Cc1ccc(O)cc1)NC(=O)[C@H](CO)NC(=O)[C@H](Cc1c[nH]c2ccccc12)NC(=O)[C@H](Cc1cnc[nH]1)NC(=O)[C@@H]1CCC(=O)N1)C(=O)N[C@@H](CCCN=C(N)N)C(=O)N1CCC[C@H]1C(=O)NCC(N)=O (stereo in doubt)
RESULT: inactive

QUERY: Recorded test call requested for COC(=O)/C=C\C(=O)OC
RESULT: inactive

QUERY: Could you kindly confirm the outcome this assay logged for COc1ccc2nc(SCc3ncc(C)c(OC)c3C)[nH]c2c1 ?
RESULT: inactive

QUERY: Answer briefly: the call reported for Cc1ncc(CO)c(CO)c1O in this assay.
RESULT: inactive

QUERY: Give the logged outcome of this assay for the following compound: COc1cc2nc(Cl)nc(N)c2cc1OC
RESULT: inactive

QUERY: // outcome(item) with item = O=C(OCC1(COC(=O)c2cccnc2)CCCC(COC(=O)c2cccnc2)(COC(=O)c2cccnc2)C1O)c1cccnc1
RESULT: inactive

QUERY: Hey, what did the test say about OC1(c2ccc(Cl)cc2)CCNCC1 ?
RESULT: inactive

QUERY: Look up the recorded call for CC(=O)OCC[N+](C)(C)C in this test.
RESULT: inactive

QUERY: Per the assay record, what outcome was assigned to O=C1NCCN1CCN1CCC(c2cn(-c3ccc(F)cc3)c3ccc(Cl)cc23)CC1 ?
RESULT: active

QUERY: Give the logged outcome of this assay for the following compound: O=C(CO)[C@@H](O)[C@H](O)[C@@H](O)CO
RESULT: inactive

QUERY: Fill in: this test's call for C=C(C)C(=O)OCC(O)CO (configuration not stated) is ___
RESULT: inactive

QUERY: Look up the recorded call for CC(C)(Oc1ccc(Cl)cc1)C(=O)OCCCOC(=O)C(C)(C)Oc1ccc(Cl)cc1 in this test.
RESULT: inactive

QUERY: Hello, I am checking results. What call was entered for CCNC(=O)[C@@H]1CCCN1C(=O)[C@H](CCCN=C(N)N)NC(=O)[C@H](CC(C)C)NC(=O)CNC(=O)[C@H](Cc1ccc(O)cc1)NC(=O)[C@H](CO)NC(=O)[C@H](Cc1c[nH]c2ccccc12)NC(=O)[C@H](Cc1cnc[nH]1)NC(=O)[C@@H]1CCC(=O)N1 ([pGlu]HWSYGLRP-NHEt) ?
RESULT: inactive

QUERY: I'd appreciate the recorded outcome for O=C(CCCl)NCCc1ccccc1 from this test.
RESULT: inactive

QUERY: Please let me know the test result on file for O=[N+]([O-])c1ccc(O)c2ncccc12 .
RESULT: active

QUERY: Please indicate how the test categorized CN1CCC(=C2c3ccccc3CCc3cccnc32)CC1 .
RESULT: inactive

QUERY: Any idea what this test logged for N[C@@H](Cc1cc(I)c(O)c(I)c1)C(=O)O ?
RESULT: inactive

QUERY: // return assay outcome for O=C1OC2(c3ccccc31)c1cc(I)c(O)c(I)c1Oc1c2cc(I)c(O)c1I
RESULT: inactive

QUERY: For CCOc1ncc(F)c(=O)[nH]1 , what call appears in the results of this test?
RESULT: inactive

QUERY: State the result this test recorded for CC1(C)OC(=O)Nc2ccc(Br)cc21 .
RESULT: inactive

QUERY: What did the test return for CC(NN)c1ccccc1 (configuration not stated) ?
RESULT: inactive

QUERY: For O=C1CC2(CCCC2)CC(=O)N1CCNCC1COc2ccccc2O1 (configuration not stated) , what call appears in the results of this test?
RESULT: inactive

QUERY: # outcome recorded in this test, key = CCOC(=O)C(=O)CCCCCCl
RESULT: inactive

QUERY: Any idea what this test logged for CC1(C)S[C@@H]2[C@H](NC(=O)C(c3ccccc3)S(=O)(=O)O)C(=O)N2[C@H]1C(=O)O (some centres not stated) ?
RESULT: inactive

QUERY: Hi, do you know how C[C@@]12CCC[C@H]1[C@@H]1CC[C@H]3C[C@@H](O)CC[C@]3(C)[C@H]1CC2 came out in this test?
RESULT: inactive

QUERY: Please let me know the test result on file for CCOC(=O)c1ccc(NC(=O)CN2CCCCC2)cc1 .
RESULT: inactive
